The measurements presented in this section are drawn from patent US8771953B2.

Listing: activation at 10 µM of selected compounds
# Tested on: 5-HT2cR mRNA
# EXPERIMENTAL_DETAILS: Editing profile of 5-HT2cR mRNA isoforms by CE-SSCP (nested PCR) in SH-SY5Y cells; enzyme activity indexes worked out from the profile
# Type: cell-based, human
# CONDITIONS: Homo sapiens, SH-SY5Y, 24 h, read-out: ENZYME ACTIVIY INDEX (% of variation) ADAR2
Numbers only; they are read as %.

A selection of reference data follows.
{"columns": ["COMPOUND", "activation at 10 µM (%)"],
 "data": [
  ["NCC1(CC(=O)O)CCCCC1", -26.7],
  ["CC(C)C[C@H](CN)CC(=O)O", -6.2],
  ["CCNC(C)Cc1cccc(C(F)(F)F)c1 (centres unmarked)", 0.7],
  ["Cc1cc2c(s1)Nc1ccccc1N=C2N1CCN(C)CC1", 9.2]
]}

// next entry
Asked: Return activation at 10 µM (reported value) for this compound: CNCCCN1c2ccccc2CCc2ccccc21
Given back: 15.5

----------
# Test system: ADAR1a mRNA
# EXPERIMENTAL_DETAILS: Q-PCR of ADAR1a mRNA expression in SH-SY5Y cells
# Assay type: cell-based
# CONDITIONS: Homo sapiens, 10 micromolar, 24 hours, read-out: QPCR: RNA expresion (% of variation) ADAR1a
EXPERIMENTAL_ENDPOINT: % change in ADAR1a mRNA expression at 10 µM (%)
# value in %; strip the unit string

{"columns": ["MOLECULE", "VALUE"],
 "data": [
  ["CCNC(C)Cc1cccc(C(F)(F)F)c1 (stereo not shown) [Fenfluramine]", 7]
]}

Asked: Identify measured % change in ADAR1a mRNA expression at 10 µM associated with CN(C)CCCC1(c2ccc(F)cc2)OCc2cc(C#N)ccc21 (stereo not shown) [Citalopram]
Given back: -18

Asked: Annotate the molecule Cc1cc2c(s1)Nc1ccccc1N=C2N1CCN(C)CC1 [Olanzapine] with its measured % change in ADAR1a mRNA expression at 10 µM.
Given back: -54

----------
# Test system: 5-HT2cR mRNA
# EXPERIMENTAL_DETAILS: Editing profile of 5-HT2cR mRNA isoforms by CE-SSCP (nested PCR) in SH-SY5Y cells; enzyme activity indexes worked out from the profile
# Format: cell-based, human
# CONDITIONS: Homo sapiens; SH-SY5Y, 10 micromolar, 24 hours; read-out: ENZYME ACTIVIY INDEX (% of variation) ADAR2
If the reported activation at 10 µM equals or exceeds 30%, assign Yes. If not, assign No.

{"columns": ["COMPOUND", "CLASS_LABEL"],
 "data": [
  ["CC(NC(C)(C)C)C(=O)c1cccc(Cl)c1 (stereo not drawn) [Bupropion]", "Yes"]
]}

Asked: Assess whether reported activation at 10 µM for NC(=O)N1c2ccccc2C=Cc2ccccc21 [Carbamazepine] sits at 30% or higher.
Given back: No

Asked: Does activation at 10 µM meet or surpass 30% for NC(=O)N1c2ccccc2CC(=O)c2ccccc21 [Oxcarbazepine] ?
Given back: No

Asked: hey, is activation at 10 µM for this one >= 30%? CC[C@@H](C(N)=O)N1CCCC1=O [Levetiracetam]
Given back: No

Asked: Reported activation at 10 µM reaches at least 30% for Nc1nnc(-c2cccc(Cl)c2Cl)c(N)n1 [Lamotrigine] ?
Given back: No

Asked: Hi team, for CN(C)CCCC1(c2ccc(F)cc2)OCc2cc(C#N)ccc21 (stereo not drawn) [Citalopram] , is the recorded activation at 10 µM at or above 30%?
Given back: Yes
